Published Ki for Carbonic anhydrase 9 (Homo sapiens), assembled from different documents, is shown next.
Readout Kind: Ki (µM)

Compound	Ki [µM]
NS(=O)(=O)c1ccc(N2C(=O)c3cccc4cccc(c34)C2=O)cc1	0.287

(I) OC[C@H]1O[C@H](O[C@]2(CCl)O[C@H](CCl)[C@@H](O)[C@@H]2O)[C@H](O)[C@@H](O)[C@H]1Cl
(II) CCn1cc(S(N)(=O)=O)c2cc(NC(=O)c3cc(-c4ccc(OC)cc4OC)nc4ccc(OC)cc34)ccc21
(III) Cc1ccc(-c2nn(-c3ccc(S(N)(=O)=O)cc3)cc2/C=N\Nc2nc(-c3cc4ccccc4oc3=O)cs2)cc1
(IV) NS(=O)(=O)c1ccc(N2C(=O)CSC2c2cccc(Cl)c2)cc1 (stereo not given)
Output the entries ranked by Ki from maximum down to minimum. Please express your ranking as an ordered list of the labels.
II, I, III, IV

###

Published Ki for Carbonic anhydrase 9 (Homo sapiens), assembled from different documents, is shown next.
Readout Kind: Ki (nM)

Smiles Repr	Ki [nM]
CCOC(=O)c1nnn(-c2ccc(S(N)(=O)=O)cc2)c1-c1ccccn1	1420
CC(=O)OC[C@H]1O[C@H](NS(N)(=O)=O)C=C[C@@H]1OC(C)=O	9
NS(=O)(=O)c1cn(CC(=O)c2ccc(F)cc2)ccc1=O	9.7
CN(C)c1nc(NC(=O)Nc2ccc(S(N)(=O)=O)cc2)nc(Nc2ccc(F)cc2)n1	66.9
CCCN1C(=O)/C(=N\c2ccc(NC(=O)Nc3ccc(S(N)(=O)=O)cc3)cc2)c2cc(Cl)ccc21	8.2

(1) Cc1nn(C)c2nnc(Nc3ccc(S(=O)(=O)NCCN)cc3)nc12
(2) COc1cc(-c2c3c4cc(OC)c(O)cc4oc(=O)c3n3ccc4c(OC)c(OC)c(OC)cc4c23)ccc1O
(3) COc1ccc(S(=O)(=O)Nc2cccc(C3C4=C(CC(C)(C)CC4=O)N(c4ccc(S(N)(=O)=O)cc4)C4=C3C(=O)CC(C)(C)C4)c2)cc1
Output the entries ranked by Ki from maximum down to minimum. Please express your ranking as an ordered list of the labels.
2, 3, 1
(2: 6330 nM, 3: 800 nM, 1: 23.7 nM)

(A) NS(=O)(=O)c1ccc(CN2C(=O)c3c(Br)c(Br)c(Br)c(Br)c3C2=O)cc1
(B) OCCN(CCO)C(=S)S
(C) NS(=O)(=O)c1ccc2c(c1)C(=O)C(=O)N2
(D) CC(=O)Nc1ccc(S(=O)(=O)Nc2nnc(S(N)(=O)=O)s2)cc1Br
Output the entries ranked by Ki from maximum down to minimum. Please express your ranking as an ordered list of the labels.
C, D, A, B
(C: 1460 nM, D: 78 nM, A: 12.3 nM, B: 4.3 nM)

###

Published Ki for Carbonic anhydrase 9 (Homo sapiens, UniProt Q16790), assembled from different documents, is shown next.
Readout Kind: Ki (nM)

Smiles Repr	Study Target	Reading Unit	Assay Result
NS(=O)(=O)c1ccc2nc(NC(=O)CSC(=S)N3CCN(C(c4ccccc4)c4ccccc4)CC3)sc2c1	Carbonic anhydrase 9 (Homo sapiens, UniProt Q16790)	nM	157
NS(=O)(=O)c1ccc(NC(=O)CCCCN2CCOCC2)cc1	Carbonic anhydrase 9 (Homo sapiens, UniProt Q16790)	nM	163

(I) Cc1c(C(=O)NCCN2CCN(C)CC2)cc(-c2ccc3ccccc3c2)n1-c1ccc(S(N)(=O)=O)cc1
(II) O=c1[nH]c2cc(Cl)c(-n3ccnc3)cc2c(=O)n1O
Identify the item whose Ki is the smaller number: I or II Write down the label of the entry you select.
II
(II: 74.9 nM, I: 126 nM)
